- tested-target: PRMT5/MEP50 (Homo sapiens, UniProt O14744)
- Sequence (O14744 whole entry): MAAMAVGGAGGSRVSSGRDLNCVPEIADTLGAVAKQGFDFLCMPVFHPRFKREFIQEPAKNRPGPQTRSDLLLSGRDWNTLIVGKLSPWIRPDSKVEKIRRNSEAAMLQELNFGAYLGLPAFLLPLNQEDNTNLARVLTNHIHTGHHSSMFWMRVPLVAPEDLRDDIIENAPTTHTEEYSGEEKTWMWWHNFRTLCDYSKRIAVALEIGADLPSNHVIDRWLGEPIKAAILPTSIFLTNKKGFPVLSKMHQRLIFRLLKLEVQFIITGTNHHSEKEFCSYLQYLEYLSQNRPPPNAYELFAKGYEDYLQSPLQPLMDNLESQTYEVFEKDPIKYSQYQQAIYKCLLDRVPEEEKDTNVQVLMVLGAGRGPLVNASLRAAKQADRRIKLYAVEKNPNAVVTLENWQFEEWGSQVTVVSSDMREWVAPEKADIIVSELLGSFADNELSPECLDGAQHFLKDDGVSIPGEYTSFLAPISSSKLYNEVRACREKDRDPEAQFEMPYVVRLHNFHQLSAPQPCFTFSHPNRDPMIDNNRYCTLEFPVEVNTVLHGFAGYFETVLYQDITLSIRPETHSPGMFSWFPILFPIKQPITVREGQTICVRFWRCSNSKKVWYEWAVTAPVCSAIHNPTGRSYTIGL
- Sequence (Q9BQA1 whole entry partner): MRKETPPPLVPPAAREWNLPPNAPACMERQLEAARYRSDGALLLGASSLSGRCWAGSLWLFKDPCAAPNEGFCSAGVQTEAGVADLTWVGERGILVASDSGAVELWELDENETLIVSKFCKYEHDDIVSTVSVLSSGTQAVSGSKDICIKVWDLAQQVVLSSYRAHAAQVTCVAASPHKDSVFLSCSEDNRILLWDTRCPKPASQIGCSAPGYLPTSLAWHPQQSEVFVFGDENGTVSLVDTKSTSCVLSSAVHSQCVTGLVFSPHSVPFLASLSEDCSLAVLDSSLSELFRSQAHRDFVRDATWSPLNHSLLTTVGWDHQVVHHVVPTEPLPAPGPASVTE
- assay-name: MTase-Glo methyl transferase assay, Method A (Histone H4 peptide, 1 µM MTA, 24 h pre-incubation)
- Type: biochemical
- Design: made in house
- conditions: read-out: PRMT5 MTase Glo Ki (nM, Meth. A)
property-label: Ki (nM)
Express the result in nM but write the number alone.

In: Give the measured Ki for Cc1cc2cc(C(=O)N(Cc3ccc(C(F)(F)F)cn3)[C@@H](C)c3ncccc3F)ccc2nc1N
Out: 3.46

In: Note down Ki recorded for CC[C@H](c1ncccn1)N(Cc1ccc(C(F)F)cn1)C(=O)c1cnc2nc(N)c(Br)cc2c1 (single isomer, unassigned)
Out: 0.52

In: In one line, give reported Ki of the entry C[C@H](c1ncccn1)N(Cc1ccc(C(F)(F)F)cn1)C(=O)c1cnc2nc(N)c(Cl)cc2c1 .
Out: 0.18

In: For the molecule C[C@H](c1ncccn1)N(Cc1ccc(OC2COC2)cn1)C(=O)c1cnc2nc(N)c(Br)cc2c1 , give its measured Ki value.
Out: 0.47

In: Quickly give me recorded Ki for Cc1cc2cc(C(=O)N(Cc3ccc(C(F)(F)F)cn3)[C@@H]3CCCNC3=O)ccc2nc1N (single isomer, unassigned)
Out: 1.23

In: Please give the documented Ki of CC[C@H](c1ncccn1)N(Cc1ccc(C(F)(F)F)cn1)C(=O)c1ccc2nc(N)c(C)cc2c1 (single isomer, unassigned)
Out: 0.06

In: Fill in reported Ki for this entry: Cc1cc2cc(C(=O)N(Cc3ncc(C(F)(F)F)cc3F)[C@H](C)c3ncccc3F)ccc2nc1N
Out: 0.01

In: Quickly give me recorded Ki for Cc1cc2cc(C(=O)N(Cc3ccc(C(F)(F)F)cn3)[C@H](C)C3CC3)ccc2nc1N
Out: 2.35

In: Read the entry Cc1cc2cc(C(=O)N(Cc3ccc(C(F)F)nn3)[C@H](C)c3ncccn3)ccc2nc1N and write its reported Ki.
Out: 0.27

In: // fetch Ki given entry Cc1cc2cc(C(=O)N(Cc3ccc(C#N)cc3)[C@H](C)c3ncccn3)ccc2nc1N (single isomer, unassigned)
Out: 0.07

In: For Cc1cc2cc(C(=O)N(Cc3ccc(Br)nn3)[C@H](C)c3nccs3)ccc2nc1N , write its Ki.
Out: 0.002

In: Give the reported Ki for this molecule. C[C@H](c1ncccn1)N(Cc1ccc(Br)nn1)C(=O)c1cnc2nc(N)c(Br)cc2c1
Out: 0.56

In: Provide only the value of recorded Ki for Cc1cc2cc(C(=O)N(Cc3ccc(C#N)cn3)[C@H](C)c3ncccn3)ncc2nc1N
Out: 0.27

In: Fill in reported Ki for this entry: Cc1cc2cc(C(=O)N(Cc3cccc(C(F)(F)F)n3)[C@H](C)c3ncccn3)ccc2nc1N (single isomer, unassigned)
Out: 0.33

In: Provide only the value of recorded Ki for Cc1cc2cc(C(=O)N(Cc3ccc(OC4COC4)cn3)[C@H](C)c3ncccn3)ccc2nc1N
Out: 0.1

In: Answer with reported Ki of Cc1cc2cc(C(=O)N(Cc3ccc(C#N)cn3)[C@H](C)c3ncccc3F)ccc2nc1N
Out: 0.12

In: Supply reported Ki belonging to this molecule: CC(=O)N1CC=C(c2ccc(CN(C(=O)c3ccc4nc(N)c(C)cc4c3)[C@H](C)c3ncccn3)nc2)CC1
Out: 0.1

In: Note down Ki recorded for Cc1cc2cc(C(=O)N(Cc3ccc(C#N)cn3)[C@@H](c3ncccn3)C3CC3)c(F)cc2nc1N
Out: 0.54

In: Kindly indicate its recorded Ki. Item: Cc1cc2cc(C(=O)N(Cc3ccc(C(F)(F)F)cn3)C3(c4ncccn4)CC3)ccc2nc1N
Out: 0.42

In: Find the measured Ki of Cc1cc2cc(C(=O)N(Cc3ccc(C(F)(F)F)cn3)Cc3ccnc4[nH]ccc34)cnc2nc1N and report it.
Out: 0.14
